B1: Pituitary-specific positive transcription factor 1, residues 130 to 198; numbered along this chain, P28069 (parent)
chain: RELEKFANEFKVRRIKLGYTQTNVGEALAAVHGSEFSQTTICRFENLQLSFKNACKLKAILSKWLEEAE

Variants of: B1
Experiment: abundance fitness (aPCA) (normalised: wild type 0, dead -1); higher = more abundant; growth selection in yeast, the domain comes from the species named
Details: Homo sapiens
Each record here notes measured abundance fitness.
Write no unit; give the number alone.

Use the examples below as a reference point.
R43I -0.888
Y19I -0.382
L28S -0.732
V31F -0.34
T20H -1.05
C55R -0.294
N23L -0.478
G33T -0.892

Give reported abundance fitness value for `N46A`
-0.15

Give me measured abundance fitness, please, for this variant: `A27C`
-0.289
